- Test system: OVCAR-5 ovarian
- Method Summary: NCI-60 one-dose screen, 48 h (100 = growth as untreated, 0 = no growth, -100 = all killed)
- Measurement Setup: 10 µM unless noted
About 83,000 compounds went through this panel and 20% of them were active in at least one assay; those are over-represented in the sample as a whole.
Attribute Measured: growth (%)
Please reply with the bare figure in % and do not write the unit itself.

**Query** Item under review: CC1CN1CCCCN1CC1C (stereo not given) . Reported growth?
**Result** 102

**Query** Item under review: CCOC(=O)c1c(C)n(Cc2ccccc2)c2cc(CN(C)C)c(O)cc12 . Reported growth?
**Result** 69.3

**Query** Item under review: CCn1c2ccccc2c2cc(C(=O)c3ccc(C)c4ccccc34)ccc21 . Reported growth?
**Result** 28.6

**Query** Item under review: COc1ccc(C2=CC(c3ccc(OC)c(OC)c3)c3c(c4ccccc4oc3=O)O2)cc1OC (stereo not given) . Reported growth?
**Result** 60.2

**Query** Item under review: COc1ccc(/C=C\c2cc(OC)c(OC)c(OC)c2)c(NS(=O)(=O)c2ccc(Cl)cc2)c1O . Reported growth?
**Result** 49.2
